Below is a list of entries, each paired with its recorded ka2 value.
# EXPERIMENTAL SYSTEM: T1, recombinant human IL-27 (human, UniProt Q14213 21-229; Q8NEV9 29-243)
# T1 construct: Bought from R&D Systems (Cat. 2526-IL); also called hIL-27; rhIL-27
# T1 sequence 1: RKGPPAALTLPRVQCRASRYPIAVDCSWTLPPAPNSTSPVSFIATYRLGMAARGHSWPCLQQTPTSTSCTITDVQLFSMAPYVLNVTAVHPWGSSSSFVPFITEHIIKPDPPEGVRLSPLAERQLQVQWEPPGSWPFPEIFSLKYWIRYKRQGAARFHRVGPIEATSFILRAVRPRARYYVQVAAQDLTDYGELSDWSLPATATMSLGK
# T1 sequence 2: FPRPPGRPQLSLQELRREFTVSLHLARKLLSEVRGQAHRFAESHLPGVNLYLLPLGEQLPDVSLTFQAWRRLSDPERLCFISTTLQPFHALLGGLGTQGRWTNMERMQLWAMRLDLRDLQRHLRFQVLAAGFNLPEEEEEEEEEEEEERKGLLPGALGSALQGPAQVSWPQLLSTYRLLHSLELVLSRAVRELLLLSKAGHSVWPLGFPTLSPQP
# ASSAY PROCEDURE: SPR, hIL-27 on CM5 chip, bivalent analyte model

Guide cases for ka2, answers given:
BINDER: Ab7.16 (antibody, human IgG1, kappa, V domains shown, human IgG1/kappa) VH: EVQLVESGGGLVQPGGSLRLSCAASGFTFTSYSMSWVRQAPGKGLEWVAYISYDGGSAYYPDTVKGRFTISRDNSKNTLYLQMNSLRAEDTAVYYCARHGDYDDDDAMDYWGQGTLVTVSS VL: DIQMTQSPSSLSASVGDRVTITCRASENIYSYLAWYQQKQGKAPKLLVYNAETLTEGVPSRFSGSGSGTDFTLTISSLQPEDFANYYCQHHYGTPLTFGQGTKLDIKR
RESULT VALUE: 0.04 1/RUs
//
BINDER: Ab7.13 (antibody, human IgG1, kappa, V domains shown, human IgG1/kappa) VH: EVKLVESGGGLVQPGGSLRLSCAASGFTFTSYSMSWVRQAPGKGLEWVAYISYDGGSAYYPDTVKGRFTISRDNSKKTLYLQMNSLRAEDTAVYYCARHGDYDDDDAMDYWGQGTLVTVSS VL: DIQMTQSPSSLSASVGDRVTITCRASENIYSYLAWYQQKPGKAPKLLVYNAETLTEGVPSRFSGSGSGTDFTLTISSLQPEDFANYYCQHHYGTPLTFGQGTKLEIKR
RESULT VALUE: 0.02 1/RUs
//
BINDER: Ab7.9 (antibody, human IgG1, kappa, V domains shown, human IgG1/kappa) VH: EVQLVESGGGLVQPGGSLRLSCAASGFTFTSYSMSWVRQAPGKGLEWVAYISYDGGSAYYPDTVKGRFTISRDNSKNTLYLQMSSLKSEDTAMYYCARHGDYDDDDAMDYWGQGTLVTVSS VL: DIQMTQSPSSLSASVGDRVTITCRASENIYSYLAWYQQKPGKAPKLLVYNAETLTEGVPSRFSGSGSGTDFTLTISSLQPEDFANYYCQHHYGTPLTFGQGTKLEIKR
RESULT VALUE: 0.043 1/RUs
//
BINDER: Ab7.2 (antibody, human IgG1, kappa, V domains shown, human IgG1/kappa) VH: EVKLVESGGGLVQPGGSLKLFCAASGFTFTSYSMSWVRQTPEKRLEWVAYISYDGGSAYYPDTVKGRFSISRDNAKKTLYLQMSSLKSEDTAMYYCARHGDYDDDDAMDYWGQGTSVTVSS VL: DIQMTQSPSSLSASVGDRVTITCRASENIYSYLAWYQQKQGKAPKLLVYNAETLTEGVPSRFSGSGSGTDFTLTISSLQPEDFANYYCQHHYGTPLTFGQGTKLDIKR
RESULT VALUE: 0.035 1/RUs
//
BINDER: Ab7.17 (antibody, human IgG1, kappa, V domains shown, human IgG1/kappa) VH: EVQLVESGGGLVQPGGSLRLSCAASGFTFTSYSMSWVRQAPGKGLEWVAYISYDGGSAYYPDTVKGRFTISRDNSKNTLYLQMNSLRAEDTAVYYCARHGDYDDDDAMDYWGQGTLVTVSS VL: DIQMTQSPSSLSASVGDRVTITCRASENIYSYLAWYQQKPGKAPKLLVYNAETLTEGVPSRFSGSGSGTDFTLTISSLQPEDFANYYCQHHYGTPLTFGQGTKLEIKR
RESULT VALUE: 0.039 1/RUs
//
BINDER: Ab7.18 (antibody, human IgG1, kappa, V domains shown, human IgG1/kappa) VH: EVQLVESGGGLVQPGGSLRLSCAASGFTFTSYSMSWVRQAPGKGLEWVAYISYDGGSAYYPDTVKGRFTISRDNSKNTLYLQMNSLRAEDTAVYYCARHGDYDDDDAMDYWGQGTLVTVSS VL: DIQMTQSPSSLSASVGDRVTITCRASENIYSYLAWYQQKPGKAPKLLVYNAETLTEGVPSRFSGSGSGTDFTLTISSLQPEDFATYYCQHHYGTPLTFGQGTKLEIKR
RESULT VALUE: 0.053 1/RUs

GET /values?readout=ka2&item= Ab7.21 (antibody, human IgG1, kappa, V domains shown, human IgG1/kappa) VH: EVQLVESGGGLVQPGGSLRLSCAASGFTFTSYSMSWVRQAPGKGLEWVSYISYDGGSAYYPDTVKGRFTISRDNSKNTLYLQMNSLRAEDTAVYYCARHGDYDDDDAMDYWGQGTLVTVSS VL: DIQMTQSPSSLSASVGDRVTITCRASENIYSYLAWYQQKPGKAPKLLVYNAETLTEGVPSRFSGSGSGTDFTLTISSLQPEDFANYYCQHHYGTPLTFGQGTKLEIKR
0.043 1/RUs

What ka2 value was documented for this binder, Ab7.14 (antibody, human IgG1, kappa, V domains shown, human IgG1/kappa) VH: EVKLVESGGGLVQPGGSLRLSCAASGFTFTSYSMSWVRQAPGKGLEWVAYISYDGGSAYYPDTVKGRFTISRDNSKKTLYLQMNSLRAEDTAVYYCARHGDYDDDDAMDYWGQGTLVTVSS VL: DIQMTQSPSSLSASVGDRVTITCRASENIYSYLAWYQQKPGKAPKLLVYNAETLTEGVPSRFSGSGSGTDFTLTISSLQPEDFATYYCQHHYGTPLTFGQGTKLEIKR ?
0.039 1/RUs

// ka2 lookup, key: Ab7.20 (antibody, human IgG1, kappa, V domains shown, human IgG1/kappa) VH: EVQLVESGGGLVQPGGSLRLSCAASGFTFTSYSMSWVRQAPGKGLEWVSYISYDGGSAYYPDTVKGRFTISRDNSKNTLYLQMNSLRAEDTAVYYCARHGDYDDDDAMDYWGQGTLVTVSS VL: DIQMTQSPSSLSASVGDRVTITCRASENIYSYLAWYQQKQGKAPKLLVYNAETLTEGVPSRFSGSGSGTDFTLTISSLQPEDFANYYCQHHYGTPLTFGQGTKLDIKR
0.036 1/RUs

Form field: reported ka2 of Ab7.8 (antibody, human IgG1, kappa, V domains shown, human IgG1/kappa) VH: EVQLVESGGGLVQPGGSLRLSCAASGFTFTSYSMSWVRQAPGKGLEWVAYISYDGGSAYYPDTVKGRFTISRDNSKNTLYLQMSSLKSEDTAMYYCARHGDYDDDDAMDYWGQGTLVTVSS VL: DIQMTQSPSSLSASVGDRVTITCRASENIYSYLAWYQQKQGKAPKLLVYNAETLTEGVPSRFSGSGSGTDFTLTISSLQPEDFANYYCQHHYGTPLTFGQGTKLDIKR
0.064 1/RUs

Which ka2 value is on record for Ab7.10 (antibody, human IgG1, kappa, V domains shown, human IgG1/kappa) VH: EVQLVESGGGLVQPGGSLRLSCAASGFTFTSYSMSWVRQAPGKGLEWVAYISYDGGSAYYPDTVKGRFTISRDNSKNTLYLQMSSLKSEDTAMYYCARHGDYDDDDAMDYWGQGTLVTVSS VL: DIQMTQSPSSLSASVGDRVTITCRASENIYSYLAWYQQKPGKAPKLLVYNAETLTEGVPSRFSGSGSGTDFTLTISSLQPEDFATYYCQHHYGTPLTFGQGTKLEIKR ?
0.084 1/RUs
